This collection of values is drawn from a melting point compilation (Tetko et al.; mined from patent text by program, amines drawn as free bases though some values may be those of a salt).

The following molecules are shown together with reported melting point values.

{"Molecule": "Cc1nc(N)ccc1NC(=NC#N)Oc1ccccc1", "melting point": "189 to 190 °C"}
{"Molecule": "OCCOCc1nnc2n1-c1ccc(Cl)cc1C(c1ccccc1)=NC2", "melting point": "162 to 164 °C"}
{"Molecule": "O=C(NCCCCCCCCCCCO[N+](=O)[O-])c1ccc(N2CCNCC2)nc1", "melting point": "78 to 80 °C"}
{"Molecule": "COc1ccc2c(c1)NC(=O)C(N=[N+]=[N-])CC2 (stereo not given)", "melting point": "136 to 138 °C"}
{"Molecule": "O=C1CCCc2[nH]c3ccc(F)cc3c21", "melting point": "255 to 260 °C"}
{"Molecule": "CN1C(=O)C(c2ccc(OC(F)F)cc2)(c2cccc(C3CC(O)C3)c2)N=C1N (stereo not given)", "melting point": "186 to 190 °C"}
{"Molecule": "S=[PH](c1ccccc1)c1ccccc1", "melting point": "134 to 135 °C"}
{"Molecule": "CC1=NN=C(c2ccc3ccccc3n2)c2cc3oc(=O)[nH]c3cc2C1", "melting point": "304 to 306 °C"}
{"Molecule": "CCNc1nc(Cl)nc(Nc2ccc(OC)cc2)n1", "melting point": "174 to 176 °C"}
{"Molecule": "COC(=O)CS(=O)(=O)C1CCCCC1Sc1cc(C(C)(C)C)c(O)c(C(C)(C)C)c1 (stereo not given)", "melting point": "93 °C"}
{"Molecule": "Cc1cc(C)c(Nc2nc(C)ncc2S(=O)(=O)c2cccc(OCc3ccccc3)c2)c(C)c1", "melting point": "112 to 115 °C"}
{"Molecule": "CO[C@]1(c2csc(Sc3ccc4c(c3)CC/C4=N\\O)c2)CCO[C@@H]1C (racemic)", "melting point": "140 to 142 °C"}
{"Molecule": "Nn1cc(C(=O)O)c(=O)c2cc(F)c(Cl)cc21", "melting point": "274 °C"}
{"Molecule": "O=[N+]([O-])c1ccc(NS(=O)(=O)C(F)(F)F)c(Oc2ccc3ccccc3c2)c1", "melting point": "117 to 120 °C"}
{"Molecule": "CCCNC(=O)C(C)Cc1ccc2c(c1)c(Cc1ccc(C(=O)NS(=O)(=O)c3ccccc3C)cc1OC)cn2CCC (stereo not given)", "melting point": "95 to 113 °C"}
{"Molecule": "O=[N+]([O-])c1ccccc1CN1CCC(c2cc(-c3ccc(Cl)cc3)[nH]n2)CC1", "melting point": "150 to 151 °C"}
{"Molecule": "NC1=NS(=O)N=C1NCCCN(Cc1ccsc1)c1ccccn1 (stereo not given)", "melting point": "140 to 142 °C"}
{"Molecule": "C[C@@H](Cc1ccc(OCC(=O)O)cc1)NS(=O)(=O)c1ccccc1", "melting point": "89 to 91 °C"}
{"Molecule": "Cc1cccc(C(=O)N[C@@H](CC(C)C)C(=O)N[C@@H](C(C)C)[C@@H](O)c2c(-c3ccccc3)c2=O)n1", "melting point": "98 to 100 °C"}
{"Molecule": "CCCN1CCNC1=C[N+](=O)[O-]", "melting point": "147 to 148 °C"}
